pIC50: −log10 of the molar value.
Here we gather pIC50 data for MALT1 (Homo sapiens, UniProt Q9UDY8) reported by several publications.

Cn1ncc2cccc(NS(=O)(=O)c3cnn(-c4cc(N5CCC6(CC6)C5)ccn4)c3)c21 ... < 5.60
Cn1ncc2cccc(NS(=O)(=O)c3ccc(-n4cc(C5(O)CC5)cn4)nc3)c21 ... < 5.60
Cn1ncc2cccc(NS(=O)(=O)c3cnn(-c4cnn5c4COCCC5)c3)c21 ... < 5.60
Cn1ncc2cccc(NS(=O)(=O)c3ccc(-c4cnn5c4COCCC5)nc3)c21 ... < 5.60
Cn1ncc2cccc(NS(=O)(=O)c3ccc(-c4cnn5c4CCC5)nc3)c21 ... < 5.60
Cc1cnn(-c2ccc(S(=O)(=O)Nc3cccc4cnn(C)c34)cn2)n1 ... < 5.60
[2H]C([2H])([2H])n1nc(F)c2cccc(NS(=O)(=O)c3cnn(-c4cc(C(F)(F)F)ccn4)c3)c21 ... < 5.60
C#Cc1cc(F)ccc1-c1cc(C)c(C(=O)Nc2cnc(-n3nccn3)c(Cl)c2)cc1C#C ... 7.00 to 8.00
CCc1ccc2cnn(C)c2c1NS(=O)(=O)c1ccc(-n2cc(C(F)(F)F)c(C(=O)N3CC(O)C3)n2)nc1 ... > 6.40
COc1ccc2cnn(C)c2c1NS(=O)(=O)c1cnn(-c2cc(N3CC[C@@H](C)C3)ccn2)c1 ... < 5.60

So the reported pIC50 for `Nc1cc(F)ccc1-c1cc(Cl)c(C(=O)Nc2cnc(C(=O)NCC(F)(F)F)c(Cl)c2)cc1F` , on MALT1 (Homo sapiens, UniProt Q9UDY8), turned out to be ≥ 8.00

So the reported pIC50 for `Cc1ccnc(-n2cc(S(=O)(=O)Nc3cccc4[nH]nc(C)c34)cn2)c1` , on MALT1 (Homo sapiens, UniProt Q9UDY8), turned out to be < 5.60

So the reported pIC50 for `Cn1ncc2cccc(NS(=O)(=O)c3cnn(-c4cc(N5CCOC5=O)ccn4)c3)c21` , on MALT1 (Homo sapiens, UniProt Q9UDY8), turned out to be < 5.60

So the reported pIC50 for `COc1ccc2cnn(C)c2c1NS(=O)(=O)c1ccc(-n2nc(C)cc2C)nc1` , on MALT1 (Homo sapiens, UniProt Q9UDY8), turned out to be > 6.40

So the reported pIC50 for `C=Cc1cnccc1-c1cc(Cl)c(C(=O)Nc2cnc(-n3nccn3)c(C(F)(F)F)c2)cc1F` , on MALT1 (Homo sapiens, UniProt Q9UDY8), turned out to be ≥ 8.00

So the reported pIC50 for `COc1ncc2cnn(C)c2c1NS(=O)(=O)c1cnn(-c2cc(N3CC(C)(C)C3)ccn2)c1` , on MALT1 (Homo sapiens, UniProt Q9UDY8), turned out to be < 5.60

---

Here we gather IC50 data for MALT1 (Homo sapiens, UniProt Q9UDY8) reported by several publications.

Nc1cc(F)ccc1-c1cc(Cl)c(C(=O)Nc2cnc(C(=O)NCc3nc[nH]n3)c(Cl)c2)cc1F ... 10 to 100 nM
COC1(c2ccnc(-n3cc(S(=O)(=O)Nc4cccc5cnn(C)c45)cn3)c2)CN(C)C1 ... > 2500 nM
COc1ccc2cnn(C)c2c1NS(=O)(=O)c1cnn(-c2cc(N3CC(C)(C#N)C3)ccn2)c1 ... > 2500 nM
Cn1ncc2cccc(NS(=O)(=O)c3cnn(-c4cc(C5CC5)ccn4)c3)c21 ... 1000 to 2500 nM

So the reported IC50 for `COc1ccc2cnn(C)c2c1NS(=O)(=O)c1ccc(-c2cnn3c2COCCC3)nc1` , on MALT1 (Homo sapiens, UniProt Q9UDY8), turned out to be > 2500 nM

So the reported IC50 for `C[C@H]1CCN(c2ccnc(-n3cc(S(=O)(=O)Nc4cccc5cnn(C)c45)cn3)c2)C1` , on MALT1 (Homo sapiens, UniProt Q9UDY8), turned out to be > 2500 nM

So the reported IC50 for `CN1CCN(c2ccnc(-n3cc(S(=O)(=O)Nc4cccc5cnn(C)c45)cn3)c2)C1=O` , on MALT1 (Homo sapiens, UniProt Q9UDY8), turned out to be > 2500 nM

So the reported IC50 for `Cn1ncc2cccc(NS(=O)(=O)c3cnn([C@@H]4CCCN(CC(F)(F)F)C4)c3)c21` , on MALT1 (Homo sapiens, UniProt Q9UDY8), turned out to be > 2500 nM
